# test-system: Albumin (Homo sapiens, UniProt P02768)
# Sequence (P02768 whole entry): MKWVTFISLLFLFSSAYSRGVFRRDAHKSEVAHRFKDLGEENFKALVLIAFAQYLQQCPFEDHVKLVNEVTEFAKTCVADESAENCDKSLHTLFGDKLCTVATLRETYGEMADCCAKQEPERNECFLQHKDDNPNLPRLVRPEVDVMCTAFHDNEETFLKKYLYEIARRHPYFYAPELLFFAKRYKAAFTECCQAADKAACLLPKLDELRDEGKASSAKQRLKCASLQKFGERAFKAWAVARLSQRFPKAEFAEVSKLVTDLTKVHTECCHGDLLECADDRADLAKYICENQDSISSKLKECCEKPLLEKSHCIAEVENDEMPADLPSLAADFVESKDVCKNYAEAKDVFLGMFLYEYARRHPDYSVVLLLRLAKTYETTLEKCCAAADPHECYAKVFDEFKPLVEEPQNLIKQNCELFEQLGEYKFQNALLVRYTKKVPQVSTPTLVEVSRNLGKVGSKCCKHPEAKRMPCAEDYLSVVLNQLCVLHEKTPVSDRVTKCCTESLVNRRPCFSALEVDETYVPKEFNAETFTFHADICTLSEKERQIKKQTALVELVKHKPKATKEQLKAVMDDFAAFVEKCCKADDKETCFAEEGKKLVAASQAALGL
# assay-procedure: Human serum albumin index was measured by retention time on an HPLC column containing human albumin
Attribute: HSAI
Lab note: record just the number, no unit beside it.

Oc1nc2cc(Cl)ccc2c(O)c1-c1cccc(C2=CCc3ccccc32)c1 : 571
O=c1[nH]c2cc(Cl)ccc2c(O)c1-c1ccccc1 : 10
C=CCOC(=O)c1c(O)c2ccc(Cl)cc2[nH]c1=O : 6
CCc1cc(Cl)cc2nc(O)c(-c3ccccc3)c(O)c12 : 103
Oc1nc2cc(Cl)ccc2c(O)c1-c1ccc2c(c1)Oc1ccccc1O2 : 260
O=C(c1ccccc1)c1cccc(-c2c(O)nc3cc(Cl)ccc3c2O)c1 : 58
NCc1ccc(CC(=O)N[C@H]2C[C@H](C(=O)O)Nc3cc(Cl)cc(Cl)c32)cc1 : 2
O=C(Cc1ccccc1)c1c(O)c2ccc(Cl)cc2[nH]c1=O : 28

stdin: Give reported HSAI value for Oc1ccccc1-c1cc2ccc(Cl)cc2nc1O
stdout: 15

stdin: Answer with reported HSAI of Oc1nc2cc(Cl)ccc2c(O)c1-c1cccc(Cc2cccc3ccccc23)c1
stdout: 629

stdin: Tell me HSAI reported for O=c1[nH]c2ccccc2c(O)c1-c1ccccc1
stdout: 2

stdin: Give me measured HSAI, please, for this molecule: CCc1cc(Cl)cc2nc(O)c(-c3cccc(Oc4ccccc4)c3)c(O)c12
stdout: 837

stdin: Give a short answer stating reported HSAI for O=C1Nc2cc(Cl)ccc2CC1[N+](=O)[O-] (stereo unspecified) .
stdout: 7

stdin: Determine its reported HSAI: CNCc1ccc(Cc2cccc(-c3c(O)nc4cc(Cl)ccc4c3O)c2)cc1
stdout: 13

stdin: Given the molecule O=[N+]([O-])c1cc([N+](=O)[O-])c2nc(O)c(O)nc2c1 , write its reported HSAI.
stdout: 4

stdin: For the molecule Oc1nc2cc(Cl)ccc2c(O)c1-c1cccc(-c2ccccc2)c1 , report HSAI.
stdout: 117

stdin: Using the record for O=c1[nH]c2cc(Cl)c(Cl)c([N+](=O)[O-])c2[nH]c1=O [LICOSTINEL] , state its measured HSAI.
stdout: 28

stdin: Look up and report measured HSAI for this entry: Oc1nc2cc(Cl)ccc2c2oc3ccccc3c12
stdout: 70

stdin: Could you please provide reported HSAI for Oc1nc2cc(Cl)ccc2c(O)c1-c1cccc(OCC2CC2)c1 ? Thanks!
stdout: 21

stdin: Using the record for Oc1nc2cc(Cl)ccc2c(O)c1-c1ccsc1 , state its measured HSAI.
stdout: 11

stdin: Note HSAI for the molecule shown: Nc1c(-c2ccccc2)c(=O)[nH]c2cc(Cl)ccc12
stdout: 7

stdin: # return recorded HSAI for entry CCOC(=O)c1c(O)c2ccc(I)cc2[nH]c1=O
stdout: 7

stdin: Assign HSAI to the following record: O=C(O)c1cccc(-c2c(O)nc3cc(Cl)ccc3c2O)c1
stdout: 9

stdin: Write down HSAI measured for item O=c1[nH]c2cc(Cl)ccc2c(O)c1-c1cccc(Cc2ccccc2)c1
stdout: 126

stdin: Fill in HSAI for record CSc1ccc(Cc2cccc(-c3c(O)nc4cc(Cl)ccc4c3O)c2)cc1
stdout: 267

stdin: Give HSAI for the following molecule: O=c1[nH]c2cc(Cl)ccc2c(O)c1-c1cccc(NCc2ccccc2)c1
stdout: 76

----------
# test-system: Albumin (Homo sapiens, UniProt P02768)
# assay-procedure: Human serum albumin index was measured by retention time on an HPLC column containing human albumin
recorded-metric: HSAI
In your answer, state the number alone without any accompanying words.

stdin: Please indicate HSAI recorded for Cc1ccc(Oc2cccc(-c3c(O)nc4cc(Cl)ccc4c3O)c2)cc1
stdout: 310

stdin: Read the entry Oc1nc2cc(Cl)ccc2c(O)c1-c1cccc(-n2ccc3ccccc32)c1 and write its reported HSAI.
stdout: 322

stdin: Quick one: give measured HSAI for O=C(c1ccco1)c1c(O)nc2cc(Cl)ccc2c1O
stdout: 3

stdin: Give HSAI for the following compound: O=C(c1c(O)nc2cc(Cl)ccc2c1O)C1CC1
stdout: 6

stdin: Complete the entry with HSAI for O=C(c1cccs1)c1c(O)c2ccc(Cl)cc2[nH]c1=O
stdout: 9

stdin: Report measured HSAI; entry is COc1ccccc1Cc1cccc(-c2c(O)nc3cc(Cl)ccc3c2O)c1
stdout: 118

Just for reference, ChEMBL document CHEMBL1130334 is where these values come from.
